System: DU-145 prostate
TEST: NCI-60 one-dose screen, 48 h (100 = growth as untreated, 0 = no growth, -100 = all killed)
EXPERIMENTAL CONTEXT: 10 µM unless noted
Compounds without any hit were thinned out: in the full panel of roughly 83,000, 20% have a hit.
Flag rule - growth less than 90% flags y; the remaining entries get n.

Please review the following examples before continuing.
CC(=O)N(N=O)c1ccc([N+](=O)[O-])cc1Cl | y
COc1cc(-c2cc3cnccc3c3nc(N)c4ccncc4c23)cc(OC)c1OC | y
COc1ccc2cnc(N)c(C#Cc3cc(C(=O)Nc4ccc(CN5CCN(C)CC5)c(C(F)(F)F)c4)cnc3C)c2c1 | y
CCOC(=O)CNS(=O)(=O)CC(=O)c1ccccc1 | n
COc1cc(OC)c2c(=O)cc(-c3ccccc3)oc2c1 | n

Data request: Is growth of CC(=O)Nc1nc(C)c(C(=O)N/N=C/c2cccs2)s1 strictly below 90%?
Data returned: n

Data request: Is growth of CC1(C)NCCC[C@]2(C)[C@H]3CC=C4[C@@H]5C[C@](C)(COC(=O)c6ccccc6C(=O)O)CC[C@]5(C)CC[C@@]4(C)[C@]3(C)CC[C@@H]12 strictly below 90%?
Data returned: y

---

Give growth for every item shown.
System: KM12 colon
TEST: NCI-60 one-dose screen, 48 h (100 = growth as untreated, 0 = no growth, -100 = all killed)
EXPERIMENTAL CONTEXT: 10 µM unless noted
About 83,000 compounds went through this panel and 20% of them were active in at least one assay; those are over-represented in the sample as a whole. Activity calls are given as the source filed them. Rule for the calls: active = growth percent below 10; inactive = the rest.

CC(=O)c1ccc2c(c1)c1ccccc1n2C | 97.9% (inactive)
CC(=O)Nc1ccc(C(=O)/C=C/c2ccc(N(C)C)cc2)cc1 | 97.7% (inactive)
CC#Cc1nc(Nc2cc(C)[nH]n2)c2ccccc2n1 | -74.6% [100 µM] (active)
N#Cc1c2ncccc2c2nnc3cc(Cl)c(Cl)cc3n12 | 89% (inactive)
CCNc1nnc(COc2ccc(CNC(=O)CCCC/C=C/C(C)C)cc2OC)o1 | 98.2% (inactive)

Data request: growth for CC[C@H](Nc1ncnc2nc[nH]c12)c1nc2cccc(NCc3ccc(C(=O)NO)nc3)c2c(=O)n1-c1ccccc1 ?
Data returned: 60.9% (inactive)

---

Give growth for every item shown.
System: OVCAR-8 ovarian
TEST: NCI-60 one-dose screen, 48 h (100 = growth as untreated, 0 = no growth, -100 = all killed)
EXPERIMENTAL CONTEXT: 10 µM unless noted
The panel holds about 83,000 compounds, 20% with a hit somewhere; the sample as a whole holds those more often.
Answers are plain numbers, in %.

Completed entries (count: 8):
Oc1ccc2ccccc2c1/C=N\Nc1ccccn1 | 14.5
CCCCCCCCCCCCOC(=O)/C=C\C(=O)NC(N)=O | 70.6
O=C1OC(c2ccc(-c3ccccc3)cc2)=C/C1=C/c1c2ccccc2cc2ccccc12 | 97.6
CCCCCCCCCCCCCCCCNC(=O)Nc1ccc(C)c(NC(=O)NCCCCCCCCCCCCCCCC)c1 | 105
Cc1ccc(C(=O)C(Br)C(Br)c2ccccc2)cc1 (stereo not given) | 96.6
CC(=O)N1CCN(CCNC(=O)n2cc(-c3ccncc3)c(-c3cc(O)cc(Cl)c3)n2)CC1 | 66
c1ccc(Nc2ccccn2)cc1 | 107
CCCCCCCCCC[N+](C)(C)C | 18.3

Could you report growth for every entry in the following list?
1. COC(=O)[C@@H]1[C@H](O)[C@H](C)[C@H](O)[C@H](C)/C=C\C=C(C)C(=O)Nc2c(C)c(OC(C)=O)c3c(c2O)C(=O)C(C)=C2OCOC(=C23)C(C)=C[C@@](C)(O)[C@H](O)[C@@H](C)[C@H]1OC(C)=O
2. CCCNC(=O)Oc1ccc(/C(=C(/CC)Cc2ccccc2)c2ccc(OCCN(CC)CC)cc2)cc1

Data returned:
104
80.3

---

Tested on: M14 melanoma
TEST: NCI-60 one-dose screen, 48 h
EXPERIMENTAL CONTEXT: 10 µM unless noted
The panel holds about 83,000 compounds, 20% with a hit somewhere; the sample as a whole holds those more often. Calls of active or inactive are those of the source. How the source made its calls: active means growth percent below 10; inactive means the rest.
Can you answer with just one of these options? Y (active), N (inactive)

Please review the following examples before continuing.
CCC(C)CC(N)O (stereo not given) | N
Cc1nnc(-c2cc3c(ccc4ccccc43)oc2=O)c2cn(-c3ccc(Cl)cc3)nc12 | N
CC(=O)/C(=C\c1c(-c2ccccc2)[nH]c2ccccc12)S(=O)(=O)c1ccccc1 | Y
Nc1ccc(S(=O)(=O)Nc2cc(F)cc(F)c2)cc1 | N
COc1ccc2c(c1)/C(=C1/S/C(=N/c3nnc(C)s3)NC1=O)C(=O)N2Cc1ccc(Br)cc1 | N
CCC(C)C1NC(=O)C(CC(C)C)NC(=O)C(C)NC(=O)C(C(C)C)NC(=O)C(CCCCN)NC(=O)C(CC(C)C)NC(=O)C(C(C)C)NC(=O)[C@H](C)NC(=O)C(C(C)CC)NC(=O)C(CCCN=C(N)N)NC(=O)C(CCCCN)NC(=O)C(CCCN=C(N)N)NC(=O)C(CCCCN)NC(=O)C([C@H](C)CC)NC(=O)C(CCCCN)NC1=O (stereo not given in full) | N

Data request: Test call for this molecule, please: COc1cc2c(cc1OC)C(Cc1cc(OC)c(OC)cc1[N+](=O)[O-])=NCC2
Data returned: N

Data request: Test call for this molecule, please: [N-]=[N+]=Nc1ncc(-c2ccc(C(F)(F)F)cc2)c(NC2CCCCCC2)n1
Data returned: N

Data request: Test call for this molecule, please: CC(=O)Nc1ccc(CC#N)cc1Br
Data returned: N

Data request: Test call for this molecule, please: CC(=O)Oc1cc2ccccc2cc1C(C)C
Data returned: N

Data request: Test call for this molecule, please: COc1cc(NC(=O)CSc2nc3ccc(Cl)cc3c(=O)n2-c2ccc(F)cc2)cc(OC)c1OC
Data returned: N

Data request: Test call for this molecule, please: C[C@@H](c1ccc2c(c1)[nH]c1ccc(Cl)cc12)c1nc2ccc(Cl)cc2[nH]1
Data returned: N

Data request: Test call for this molecule, please: CCCCCCNC(=O)Oc1ccc(/C(=C(/C)Cc2ccc(OC)cc2)c2ccc(OCCN3CCCCC3)cc2)cc1
Data returned: N

Data request: Test call for this molecule, please: COc1cc2cn3c4ccc(O)cc4[nH]c(=O)c3c2cc1OC
Data returned: Y

---

System: SK-MEL-28 melanoma
TEST: NCI-60 one-dose screen, 48 h
EXPERIMENTAL CONTEXT: 10 µM unless noted
Experimental: Growth inhibition of the SK-MEL-28 human tumor cell line is measured as a screen for anti-cancer activity. Cells are grown in 96 well plates and exposed to the test compound for 48 hours. Compounds are tested at a single concentration, which is 10^-5 M for most compounds. The reported endpoint is percent growth (GI% or GIPRCNT), where numbers from 0 - 100% represent growth inhibition, and numbers from -100% - 0 represent cell death. For example, a value of 40 represents 60% growth inhibition. […]
Compounds without any hit were thinned out: in the full panel of roughly 83,000, 20% have a hit. Activity calls are given as the source filed them. Rule for the calls: active = growth percent below 10; inactive = the rest.
Can you answer with just one of these options? 1.0 (active), 0.0 (inactive)

Data request: Test call for this compound, please: COC(=O)/C=C/c1cc(O)c2oc(-c3ccc(O)c(O)c3)c(C(=O)OC)c2c1
Data returned: 0.0

Data request: Test call for this compound, please: COc1ccc(C(=O)c2no[n+]([O-])c2C(=O)c2ccc(OC)cc2)cc1
Data returned: 0.0

Data request: Test call for this compound, please: C/C=C(/C)C(=O)OC1C=C(CO)C(=O)C(OC(=O)C2(C)OC2C)C1C(C)C (configuration not stated)
Data returned: 1.0

Data request: Test call for this compound, please: CCOC(=O)C(C)C(C)(O)c1ccccc1 (configuration not stated)
Data returned: 0.0

Data request: Test call for this compound, please: COc1ccc(C(O)(c2ccccc2)C(C(=O)O)c2ccccc2)cc1 (configuration not stated)
Data returned: 0.0

Data request: Test call for this compound, please: Cc1nc(NC(=O)NC2CCCCC2)sc1C(=O)NN
Data returned: 0.0

Data request: Test call for this compound, please: O=C(OCC1CC2(Cl)C(Cl)=C(Cl)C1(Cl)C2(Cl)Cl)C1C(C(=O)OCC2CC3(Cl)C(Cl)=C(Cl)C2(Cl)C3(Cl)Cl)C2(Cl)C(Cl)=C(Cl)C1(Cl)C2(Cl)Cl (configuration not stated)
Data returned: 0.0

Data request: Test call for this compound, please: COc1cc(/C=C/C(=O)c2ccc(F)cc2)ccc1OCCCCOc1cc2c(cc1OC)C(=O)N1CCCC1C=N2 (configuration not stated)
Data returned: 1.0

Data request: Test call for this compound, please: Clc1ccc(N/N=C(\c2ccccc2)c2ccccn2)nc1
Data returned: 0.0

Data request: Test call for this compound, please: COc1cccc(CNC(=O)c2cccc(C3CC(=O)c4c(cc(OC)c(OC)c4OC)O3)c2)c1 (configuration not stated)
Data returned: 0.0

Data request: Test call for this compound, please: CCCCCCCCCCCCCCCCCC(=O)Nc1ccc(O)cc1
Data returned: 0.0

Data request: Test call for this compound, please: N=C(N)c1ccc(-c2ccc(-c3cc(Cl)cc(Cl)c3)s2)cc1
Data returned: 1.0

Data request: Test call for this compound, please: O=S(=O)(O)CCI
Data returned: 0.0

Data request: Test call for this compound, please: OC(c1ccccc1)(c1ccccc1)C(F)(F)F
Data returned: 0.0

Data request: Test call for this compound, please: C/C(=N\Nc1ccc(Cl)cn1)c1ccccn1
Data returned: 0.0

Data request: Test call for this compound, please: O=C(/C=C\c1ccccc1Cl)c1ccccc1
Data returned: 0.0

Data request: Test call for this compound, please: NCCCOc1cc(Cl)ccc1NC(=O)c1cc2ccccc2cc1OCCCN
Data returned: 1.0

Data request: Test call for this compound, please: CC(C)(C)c1ccc(OCCOC(=O)CBr)cc1
Data returned: 0.0

Data request: Test call for this compound, please: CCC(C)(C)c1ccc(OCCCCCCN2CCNCC2)cc1
Data returned: 0.0

Data request: Test call for this compound, please: CC(=O)OC1/C=C\CC/C=C\C1 (configuration not stated)
Data returned: 0.0

Data request: Test call for this compound, please: CCOc1nc(-c2ccccc2)cc2c(O)c(C(=O)N/N=C/c3ccccc3O)[nH]c(=O)c12
Data returned: 0.0
